// values below are reported Z-AUC
Test: qHTS drug screen for cell cycle checkpoint inhibitors in PARPi-resistant BRCA-mutant ovarian cancer cell lines. (AID 1963452)
Settings: PEO1/OlaR viability, CellTiter-Glo luminescence, 96 h; measured here: PEO1 parental Z-AUC; stronger effect = lower value
Excerpt: Women's Malignancies Branch, Center for Cancer Research (CCR), National Cancer Institute (NCI), National Institutes of Health (NIH), Bethesda, MD Poly (ADP-ribose) polymerase inhibitors (PARPis) have changed the treatment paradigm in breast cancer gene (BRCA) - mutant high-grade serous ovarian carcinoma (HGSC). […] 6; Detection; Luminescence, PHERAstar (BMG Labtech) plate reader. […] 6. Luminescence readings were taken using PHERAstar (BMG Labtech). […]
measured.metric: Z-AUC

molecule	measured.metric	endpoint.result
Nc1ncccc1-c1nc2ccc(-c3ccccc3)nc2n1-c1ccc(C2(N)CCC2)cc1	Z-AUC	-0.0298
C[C@@H]1CC2C3C[C@H](F)C4=CC(=O)C=C[C@]4(C)[C@@]3(F)[C@@H](O)C[C@]2(C)[C@@]1(OC(=O)c1ccco1)C(=O)SCF (some centres undefined)	Z-AUC	0.658
C=C1C(=O)OC2/C=C(/C)CC/C=C(/C)CCC12 (centres undefined)	Z-AUC	1.29
C[C@H](NC(=O)c1c(N)nn2cccnc12)c1cc2cccc(C#Cc3cnn(C)c3)c2c(=O)n1-c1ccccc1	Z-AUC	0.564
